Kindly state control value, component (II) alone for each of the entries shown.
Test system: cucumber powdery mildew pathogen (Sphaerotheca fuliginea)
experiment_description: Cucumber powdery mildew control test
Assay type: in vivo
Parameters: scale not given here
study_conditions: Table 9; ppm or dilution rate: Thiophanate-methyl 1.6, Triflumizole 25, Cyflufenamid 1.6, Iminoctadine acetate 0.25, Iminoctadine albesilate 1, Picarbutrazox 2000, Ipflufenoquin 1, Bacillus subtilis ×250, Pseudomonas rhodesiae ×2000, Sodium hydrogen carbonate 250, Potassium bicarbonate 250, Orange oil 1000, Linalool 4000, Thymol 100, Neem oil 2000, Prothioconazole 1.6, Mancozeb 63, Mineral oil 500
Numbers only.

# annotated cases, reported control value, component (II) alone shown
| molecule | tested_target | control value, component (II) alone |
| --- | --- | --- |
| Cc1nc2c(F)c(F)ccc2cc1Oc1cccc(F)c1C(C)(C)O | cucumber powdery mildew pathogen (Sphaerotheca fuliginea) | 27 |
| CCCCCCCCCCCCc1ccc(S(=O)(=O)O)cc1.CCCCCCCCCCCCc1ccc(S(=O)(=O)O)cc1.CCCCCCCCCCCCc1ccc(S(=O)(=O)O)cc1.NC(N)=NCCCCCCCCNCCCCCCCCN=C(N)N [Iminoctadine albesilate] | cucumber powdery mildew pathogen (Sphaerotheca fuliginea) | 67 |
| O=C(Cc1ccccc1)N/C(=N\OCC1CC1)c1c(C(F)(F)F)ccc(F)c1F | cucumber powdery mildew pathogen (Sphaerotheca fuliginea) | 50 |
| O=C([O-])O.[Na+] [Sodium hydrogen carbonate] | cucumber powdery mildew pathogen (Sphaerotheca fuliginea) | 33 |
| OC(Cc1ccccc1Cl)(Cn1nc[nH]c1=S)C1(Cl)CC1 (stereo not drawn) | cucumber powdery mildew pathogen (Sphaerotheca fuliginea) | 0 |
| C=CC(C)(O)CCC=C(C)C (stereo not drawn) | cucumber powdery mildew pathogen (Sphaerotheca fuliginea) | 27 |
| Cn1nnnc1/C(=N\OCc1cccc(NC(=O)OC(C)(C)C)n1)c1ccccc1 | cucumber powdery mildew pathogen (Sphaerotheca fuliginea) | 50 |
| O=C([O-])O.[K+] [Potassium bicarbonate] | cucumber powdery mildew pathogen (Sphaerotheca fuliginea) | 64 |
| COC(=O)NC(=S)Nc1ccccc1NC(=S)NC(=O)OC [Thiophanate-methyl] | cucumber powdery mildew pathogen (Sphaerotheca fuliginea) | 83 |
| CCCOC/C(=N\c1ccc(Cl)cc1C(F)(F)F)n1ccnc1 | cucumber powdery mildew pathogen (Sphaerotheca fuliginea) | 27 |

Parameter requested: control value, component (II) alone. Apply to each item below.
1. CC(=O)O.CC(=O)O.CC(=O)O.NC(N)=NCCCCCCCCNCCCCCCCCN=C(N)N [Iminoctadine acetate]
2. Cc1ccc(C(C)C)c(O)c1

50
17
